Species on record: Homo sapiens
assay-comment: Selectivity ratio of IC50 for human integrin alphavbeta6 receptor to IC50 for human integrin alphavbeta8 receptor
recorded-metric: Ratio IC50

In the examples that follow, each entry is paired with its recorded Ratio IC50.
molecule	Ratio IC50
CC(C)C[C@@H]1NC(=O)[C@H](CC(=O)O)NC(=O)CNC(=O)[C@H](CCCNC(=N)N)NC(=O)[C@H](Cc2c[nH]c3ccccc23)NC(=O)[C@H](C)NC(=O)[C@@H]2CCCN2C(=O)[C@H]2CCCN2C1=O	20.1
CC(C)C[C@@H]1NC(=O)[C@H](C)NC(=O)[C@H](C)NC(=O)[C@@H]2CCCN2C(=O)[C@H]2CCCN2C(=O)[C@H](CC(C)C)NC(=O)[C@H](CC(=O)O)NC(=O)CNC(=O)[C@H](CCCNC(=N)N)NC(=O)[C@H](C)NC1=O	2.9

(A) CC(C)C[C@@H]1NC(=O)[C@H](C)NC(=O)[C@H](Cc2ccccc2)N(C)C(=O)[C@H]2CCCN2C(=O)[C@H](CC(C)C)NC(=O)[C@H](CC(=O)O)NC(=O)CNC(=O)[C@H](CCCNC(=N)N)NC1=O
(B) CC(C)C[C@@H]1NC(=O)[C@H](CC(=O)O)NC(=O)CNC(=O)[C@H](CCCNC(=N)N)NC(=O)[C@H](CCCCN)NC(=O)[C@H](C)NC(=O)[C@@H]2CCCN2C(=O)[C@H]2CCCN2C1=O
Input line: Look at A and B . Which one has the lower recorded Ratio IC50 number? State the label of the item chosen.
Output line: A
(A: 3, B: 5.6)

---

Species: Homo sapiens
assay-comment: Selectivity ratio of IC50 for human integrin alphavbeta6 receptor to IC50 for human integrin alphavbeta8 receptor
Non-standard residues stand in square brackets, D forms with d. Residues, ends and D or L forms follow the SMILES beside them. dNMeF = CN[C@H](Cc1ccccc1)C(=O)O
recorded-metric: Ratio IC50

molecule	result-value
CCCCCCNC1C[C@H]2C(=O)NCC(=O)N[C@@H](CC(C)C)C(=O)N[C@@H](CCCNC(=N)N)C(=O)NCC(=O)N[C@@H](CC(=O)O)C(=O)N[C@@H](CC(C)C)C(=O)N3CCC[C@@H]3C(=O)N2C1 (stereo not given in full)	16

(P) CC(C)C[C@@H]1NC(=O)[C@H](C)NC(=O)[C@@H]2CCCN2C(=O)[C@@H](CC(C)C)N(C)C(=O)[C@H](CC(C)C)NC(=O)[C@H](CC(=O)O)NC(=O)CNC(=O)[C@H](CCCNC(=N)N)NC1=O
(Q) CC(C)C[C@@H]1NC(=O)[C@H](C)NC(=O)[C@@H]2CCCN2C(=O)[C@@H](Cc2ccccc2)N(C)C(=O)[C@H](CC(C)C)NC(=O)[C@H](CC(=O)O)NC(=O)CNC(=O)[C@H](CCCNC(=N)N)NC1=O (cyclo(RGDL[dNMeF]PAL))
(R) CC[C@H](C)[C@@H]1NC(=O)[C@H](CC(=O)O)NC(=O)CNC(=O)[C@H](CCCNC(=N)N)NC(=O)[C@H](Cc2ccccc2)NC(=O)[C@H](C)NC(=O)[C@@H]2CCCN2C(=O)[C@H]2CCCN2C1=O
Input line: Ordering: ascending Ratio IC50. Would you mind listing the labels in the order asked for?
Output line: R, P, Q
(R: 4.2, P: 6.3, Q: 15)

---

target-system: Integrin alpha-V/beta-3 (Homo sapiens, UniProt P05106+P06756)
Sequence (P05106 27-788 limits assumed): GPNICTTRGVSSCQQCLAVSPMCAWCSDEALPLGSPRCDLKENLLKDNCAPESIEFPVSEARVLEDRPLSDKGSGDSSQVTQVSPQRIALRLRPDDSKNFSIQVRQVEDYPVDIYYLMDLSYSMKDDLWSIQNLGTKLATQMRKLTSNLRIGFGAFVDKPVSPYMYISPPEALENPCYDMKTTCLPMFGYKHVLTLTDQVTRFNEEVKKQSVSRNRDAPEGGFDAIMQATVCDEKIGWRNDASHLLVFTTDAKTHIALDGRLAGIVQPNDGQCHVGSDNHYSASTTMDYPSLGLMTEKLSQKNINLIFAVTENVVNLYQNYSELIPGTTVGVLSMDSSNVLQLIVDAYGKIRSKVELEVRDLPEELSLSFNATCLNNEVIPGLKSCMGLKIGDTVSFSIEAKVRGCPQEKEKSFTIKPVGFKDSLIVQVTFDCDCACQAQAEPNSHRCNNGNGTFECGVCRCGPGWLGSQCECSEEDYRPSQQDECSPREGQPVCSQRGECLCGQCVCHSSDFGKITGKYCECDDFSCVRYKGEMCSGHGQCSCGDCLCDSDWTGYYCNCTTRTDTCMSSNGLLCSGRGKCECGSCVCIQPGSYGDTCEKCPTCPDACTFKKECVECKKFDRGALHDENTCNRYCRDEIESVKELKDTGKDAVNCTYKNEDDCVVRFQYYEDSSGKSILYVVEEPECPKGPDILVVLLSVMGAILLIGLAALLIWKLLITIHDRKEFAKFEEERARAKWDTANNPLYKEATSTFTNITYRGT
Sequence (P06756 31-889 limits assumed): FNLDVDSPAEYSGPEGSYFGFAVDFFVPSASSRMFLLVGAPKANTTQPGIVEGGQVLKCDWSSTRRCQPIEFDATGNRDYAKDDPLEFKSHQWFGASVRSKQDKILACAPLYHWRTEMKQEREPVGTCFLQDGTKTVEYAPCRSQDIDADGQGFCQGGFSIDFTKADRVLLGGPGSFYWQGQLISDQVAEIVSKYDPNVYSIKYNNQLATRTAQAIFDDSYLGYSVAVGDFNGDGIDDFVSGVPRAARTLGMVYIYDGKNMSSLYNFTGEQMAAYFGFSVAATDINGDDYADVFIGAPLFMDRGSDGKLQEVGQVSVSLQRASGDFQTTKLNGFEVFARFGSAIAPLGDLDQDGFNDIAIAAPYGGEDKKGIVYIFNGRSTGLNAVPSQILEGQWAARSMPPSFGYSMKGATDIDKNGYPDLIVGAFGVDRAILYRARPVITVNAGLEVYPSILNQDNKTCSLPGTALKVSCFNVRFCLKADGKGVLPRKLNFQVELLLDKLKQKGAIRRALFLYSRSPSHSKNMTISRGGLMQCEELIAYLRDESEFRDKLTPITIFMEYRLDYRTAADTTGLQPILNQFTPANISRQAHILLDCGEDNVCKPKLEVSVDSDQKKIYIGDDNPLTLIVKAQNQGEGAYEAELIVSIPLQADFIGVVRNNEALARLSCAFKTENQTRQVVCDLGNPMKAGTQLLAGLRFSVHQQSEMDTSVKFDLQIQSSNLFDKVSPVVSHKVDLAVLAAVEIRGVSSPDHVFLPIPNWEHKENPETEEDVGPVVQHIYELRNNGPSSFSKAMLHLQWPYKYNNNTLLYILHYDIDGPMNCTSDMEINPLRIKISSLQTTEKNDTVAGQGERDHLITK
Sequence (P06756 891-1048 limits assumed): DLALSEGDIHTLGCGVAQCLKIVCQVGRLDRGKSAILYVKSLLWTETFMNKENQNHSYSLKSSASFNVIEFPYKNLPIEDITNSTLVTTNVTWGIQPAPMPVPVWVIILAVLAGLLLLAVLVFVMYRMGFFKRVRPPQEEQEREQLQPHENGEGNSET
assay-comment: Inhibition of human vitronectin binding to human integrin alphavbeta3 receptor after 1 hr by solid-phase binding assay
Non-standard residues stand in square brackets, D forms with d. Residues, ends and D or L forms follow the SMILES beside them. Groups on a side chain read outwards from the residue. *: point of attachment. BODIPY(FL) = CC1=CC(C)=[N+]2C1=Cc1ccc(CCC(=O)*)n1[B-]2(F)F; NMeK = CN[C@@H](CCCCN)C(=O)O; Ahx = NCCCCCC(=O)O
recorded-metric: pIC50
# pIC50 = -log10(concentration in molar units)

molecule	pIC50
CC(=O)NCCCC[C@H]1C(=O)NCC(=O)N[C@@H](CC(C)C)C(=O)N[C@@H](CCCNC(=N)N)C(=O)NCC(=O)N[C@@H](CC(=O)O)C(=O)N[C@@H](CC(C)C)C(=O)N2CCC[C@@H]2C(=O)N1C (cyclo(RGDL[dP][NMeK](Ac)GL))	6.46

Now look at this entry.
The molecule identified as CC1=CC(C)=[N+]2C1=Cc1ccc(CCC(=O)NCCCCCC(=O)NCCCC[C@H]3C(=O)NCC(=O)N[C@@H](CC(C)C)C(=O)N[C@@H](CCCNC(=N)N)C(=O)NCC(=O)N[C@@H](CC(=O)O)C(=O)N[C@@H](CC(C)C)C(=O)N4CCC[C@@H]4C(=O)N3C)n1[B-]2(F)F (cyclo(RGDL[dP][NMeK]([Ahx-BODIPY(FL)])GL)) registered its pIC50 at 7.37

---

target-system: Integrin alpha-V/beta-8 (Homo sapiens, UniProt P06756+P26012)
Sequence (P26012 43-769 limits assumed, one chain of several): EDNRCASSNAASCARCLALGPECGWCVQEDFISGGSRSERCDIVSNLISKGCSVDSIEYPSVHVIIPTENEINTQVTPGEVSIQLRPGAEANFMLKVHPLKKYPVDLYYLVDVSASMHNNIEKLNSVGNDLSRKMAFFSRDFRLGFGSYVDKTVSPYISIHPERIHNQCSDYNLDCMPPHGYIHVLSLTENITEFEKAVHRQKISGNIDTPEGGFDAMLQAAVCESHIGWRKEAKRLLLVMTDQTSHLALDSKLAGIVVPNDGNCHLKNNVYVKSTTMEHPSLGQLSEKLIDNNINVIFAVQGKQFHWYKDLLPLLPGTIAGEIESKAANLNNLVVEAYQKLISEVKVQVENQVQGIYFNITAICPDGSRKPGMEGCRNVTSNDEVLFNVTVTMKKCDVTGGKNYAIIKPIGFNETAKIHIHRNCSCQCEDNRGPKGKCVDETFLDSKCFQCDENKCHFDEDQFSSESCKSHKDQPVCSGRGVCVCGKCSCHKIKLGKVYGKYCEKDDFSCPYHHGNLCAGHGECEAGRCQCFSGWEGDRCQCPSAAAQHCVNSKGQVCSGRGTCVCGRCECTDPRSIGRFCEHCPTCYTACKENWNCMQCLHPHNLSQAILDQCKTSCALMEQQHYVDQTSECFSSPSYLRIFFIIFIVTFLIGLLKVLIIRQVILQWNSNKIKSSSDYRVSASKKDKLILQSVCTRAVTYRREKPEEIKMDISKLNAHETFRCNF
assay-comment: Inhibition of LAP binding to human integrin alphavbeta8 receptor after 1 hr by solid-phase binding assay
Format: protein-complex assay
experimental-conditions: read-out: IC50
pIC50: −log10 of the molar value.
recorded-metric: pIC50

In the examples that follow, each entry is paired with its recorded pIC50.
molecule	pIC50
CC(C)C[C@@H]1NC(=O)[C@H](CC(=O)O)NC(=O)[C@H](CO)NC(=O)[C@H](CCCNC(=N)N)NC(=O)[C@H](Cc2ccccc2)NC(=O)[C@H](C)NC(=O)[C@@H]2CCCN2C(=O)[C@H]2CCCN2C1=O	8.24
CC(=O)NCCCCN1C(=O)[C@H]2CCCN2C(=O)[C@H](CC(C)C)NC(=O)[C@H](CC(=O)O)NC(=O)CNC(=O)[C@H](CCCNC(=N)N)NC(=O)[C@H](CC(C)C)NC(=O)CNC(=O)[C@@H]1C	7.57
CC(C)C[C@@H]1NC(=O)[C@H](C)NC(=O)[C@@H]2CCCN2C(=O)[C@H]2CCCN2C(=O)[C@H](C)NC(=O)[C@H](CC(C)C)NC(=O)[C@H](CC(=O)O)NC(=O)CNC(=O)[C@H](CCCNC(=N)N)NC(=O)[C@H](C)NC1=O	5.95

(a) CC(C)C[C@@H]1NC(=O)[C@H](CC(=O)O)NC(=O)CNC(=O)[C@H](CCCNC(=N)N)NC(=O)[C@@H](C)NC(=O)[C@H](C)NC(=O)[C@@H]2CCCN2C(=O)[C@H]2CCCN2C1=O
(b) CC(C)C[C@@H]1NC(=O)[C@H](CC(=O)O)NC(=O)CNC(=O)[C@H](CCCNC(=N)N)NC(=O)[C@H](Cc2c[nH]c3ccccc23)NC(=O)[C@H](C)NC(=O)[C@@H]2CCCN2C(=O)[C@H]2CCCN2C1=O
Input line: Which numeric pIC50 is bigger, that of a or that of b ? State the label of the item chosen.
Output line: b

---

target-system: Integrin alpha-V/beta-6 (Homo sapiens, UniProt P06756+P18564)
Sequence (P06756 31-889 limits assumed): as the sequence (P06756 31-889 limits assumed) above
Sequence (P06756 891-1048 limits assumed): as the sequence (P06756 891-1048 limits assumed) above
Sequence (P18564 22-788 limits assumed): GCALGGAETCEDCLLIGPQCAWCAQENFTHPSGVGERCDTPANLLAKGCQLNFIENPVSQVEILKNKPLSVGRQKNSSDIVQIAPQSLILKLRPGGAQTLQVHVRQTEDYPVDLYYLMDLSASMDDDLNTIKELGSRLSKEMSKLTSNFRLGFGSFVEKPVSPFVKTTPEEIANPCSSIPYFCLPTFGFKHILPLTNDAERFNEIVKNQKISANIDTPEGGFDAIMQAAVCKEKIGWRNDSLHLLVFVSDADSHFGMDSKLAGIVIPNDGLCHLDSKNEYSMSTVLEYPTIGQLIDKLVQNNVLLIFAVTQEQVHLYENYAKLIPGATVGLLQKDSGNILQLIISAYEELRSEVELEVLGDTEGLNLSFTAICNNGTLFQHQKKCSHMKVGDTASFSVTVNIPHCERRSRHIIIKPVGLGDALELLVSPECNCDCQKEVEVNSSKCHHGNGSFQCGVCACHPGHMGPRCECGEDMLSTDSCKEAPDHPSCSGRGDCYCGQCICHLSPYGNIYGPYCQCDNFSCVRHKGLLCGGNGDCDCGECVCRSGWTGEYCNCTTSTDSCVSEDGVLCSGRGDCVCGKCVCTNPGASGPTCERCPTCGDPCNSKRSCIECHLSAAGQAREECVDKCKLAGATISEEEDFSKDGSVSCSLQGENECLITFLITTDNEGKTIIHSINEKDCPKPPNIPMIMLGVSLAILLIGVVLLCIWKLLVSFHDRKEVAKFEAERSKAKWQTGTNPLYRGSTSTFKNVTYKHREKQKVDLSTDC
assay-comment: Inhibition of LAP binding to human integrin alphavbeta6 receptor after 1 hr by solid-phase binding assay
Type: protein-complex assay
experimental-conditions: read-out: IC50
recorded-metric: IC50 (nM)

molecule	target-system	recorded-metric	unit-tag	result-value
CC(C)C[C@@H]1NC(=O)[C@H](CC(=O)O)NC(=O)CNC(=O)[C@H](CCCNC(=N)N)NC(=O)[C@H](CCCCN)NC(=O)[C@H](C)NC(=O)[C@@H]2CCCN2C(=O)[C@H]2CCCN2C1=O	Integrin alpha-V/beta-6 (Homo sapiens, UniProt P06756+P18564)	IC50	nM	40.7
CC(C)C[C@@H]1NC(=O)[C@H](C)NC(=O)[C@H](C(C)C)N(C)C(=O)[C@H]2CCCN2C(=O)[C@H](CC(C)C)NC(=O)[C@H](CC(=O)O)NC(=O)CNC(=O)[C@H](CCCNC(=N)N)NC1=O	Integrin alpha-V/beta-6 (Homo sapiens, UniProt P06756+P18564)	IC50	nM	70

(A) CC[C@H](C)[C@@H]1NC(=O)[C@H](C)NC(=O)[C@@H]2CCCN2C(=O)[C@H]2CCCN2C(=O)[C@H](CC(C)C)NC(=O)[C@H](CC(=O)O)NC(=O)CNC(=O)[C@H](CCCNC(=N)N)NC1=O
(B) CC(C)C[C@@H]1NC(=O)[C@H](CC(=O)O)NC(=O)CNC(=O)[C@H](CCCNC(=N)N)NC(=O)[C@H](Cc2ccccc2)NC(=O)[C@H](C)NC(=O)[C@@H]2CCCN2C(=O)[C@H]2CCCN2C1=O
(C) CC(C)C[C@@H]1NC(=O)[C@H](C)NC(=O)[C@@H]2CCCN2C(=O)[C@H]2CCCN2C(=O)[C@H](C)NC(=O)[C@H](CC(C)C)NC(=O)[C@H](CC(=O)O)NC(=O)[C@H]([C@@H](C)O)NC(=O)[C@H](CCCNC(=N)N)NC(=O)[C@H](C)NC1=O
Input line: # rank_down: sort by IC50, max first Would you mind listing the labels in the order asked for?
Output line: C, B, A
(C: 495 nM, B: 81.3 nM, A: 40.2 nM)
